biological target: pKSI^D40N (ketosteroid isomerase) (Pseudomonas putida, UniProt P07445, D34C/D40N); experiment: biochemical; type: binding; settings: apparent affinity at pH 8 ([picture]), pH 8; errors in parenthesis are average deviations
Sequence (P07445 whole entry D34C/D40N): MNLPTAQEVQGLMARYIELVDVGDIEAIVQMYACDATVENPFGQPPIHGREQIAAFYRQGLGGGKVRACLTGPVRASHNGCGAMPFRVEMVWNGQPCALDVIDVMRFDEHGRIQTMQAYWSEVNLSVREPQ
Reported pKd values follow for various compounds
# pKd is unitless: minus log10 of the molar concentration; print number only

INSERT INTO measurements (compound, metric_name, value_measured) VALUES
  ('Oc1cccc(F)c1 [Phenol 3-F, 3-fluorophenol]', 'pKd', 4.39),
  ('Oc1cc(F)c(F)c(F)c1 [3,4,5-F3, 3,4,5-trifluorophenol]', 'pKd', 5.21);

Lab note: next compound to report on.
Challenge: Quick check: pKd on pKSI^D40N (ketosteroid isomerase) (Pseudomonas putida, UniProt P07445, D34C/D40N), item Oc1ccccc1 [Phenol, phenol] ?
Response given: 3.87

###

biological target: pKSI^D40N (ketosteroid isomerase) (Pseudomonas putida, UniProt P07445, D34C/D40N); assay: biochemical; assay type: binding; conditions: Kd from fit of pH dependence of binding to Equation 4, phenol pKa fixed at 8.0; enzyme pKa 5.5
metric.name: pKd
# pKd is unitless: minus log10 of the molar concentration; print number only

Challenge: Name the reported pKd value associated with the molecule N#Cc1ccc(O)cc1 [Phenol 4-CN, 4-cyanophenol]
Response given: 7.80

###

target: tKSI^D40N (Comamonas testosteroni, UniProt P00947, D38N); design: species or system Commamonas testosteroni; settings: pH 7.2, −3 °C
metric.name: δ1, chemical shift of most downfield peak in complex (ppm)
Kindly provide the numeric value in ppm only, without the unit symbol.

Worked set:
INSERT INTO assay_data (compound, assay_system, value_measured) VALUES
  ('O=[N+]([O-])c1ccc(O)cc1F [Phenol 3-F-4-NO2, 3-fluoro-4-nitrophenol]', 'tKSI^D40N (Comamonas testosteroni, UniProt P00947, D38N)', 14.4),
  ('Oc1cc(F)cc(C(F)(F)F)c1 [Phenol 3-F-5-CF3, 3-fluoro-5-(trifluoromethyl)phenol]', 'tKSI^D40N (Comamonas testosteroni, UniProt P00947, D38N)', 16.4),
  ('Oc1ccc(I)cc1 [Phenol 4-I]', 'tKSI^D40N (Comamonas testosteroni, UniProt P00947, D38N)', 16.7),
  ('Oc1ccc(Cl)c(Cl)c1 [3,4-Cl2, 3,4-dichlorophenol]', 'tKSI^D40N (Comamonas testosteroni, UniProt P00947, D38N)', 16.4);

Lab note: next compound to report on.
Challenge: Name the reported δ1, chemical shift of most downfield peak in complex value associated with the compound O=[N+]([O-])c1ccc(O)cc1C(F)(F)F [Phenol 3-CF3-4-NO2]
Response given: 14.9

###

target: pKSI^D40N (ketosteroid isomerase) (Pseudomonas putida, UniProt P07445, D34C/D40N); test: biochemical; assay type: binding; conditions: pH-independent affinity of the phenolate form for the protonated enzyme (Equation 4), converted from apparent affinity at pH 6.9
metric.name: Kd (nM)
Kindly provide the numeric value in nM only, without the unit symbol.

Challenge: Name the reported Kd value associated with the compound "O=[N+]([O-])c1ccc(O)cc1"
Response given: 26

###

experiment: Enthalpies of ionization of phenols by titration with NaOH; type: physicochemical; details: Ionic strength 0.1
metric.name: ∆Hion (heat of ionization)

Worked set:
INSERT INTO results (structure_smiles_string, metric_name, value_measured) VALUES
  ('Oc1ccc(F)c(F)c1', '∆Hion (heat of ionization)', '7.04 (0.06)'),
  ('Oc1cccc(F)c1', '∆Hion (heat of ionization)', '6.29 (0.05)'),
  ('Oc1cc(F)c(F)c(F)c1', '∆Hion (heat of ionization)', '5.62 (0.06)'),
  ('Oc1ccc(F)cc1', '∆Hion (heat of ionization)', '6.21 (0.06)');

Lab note: next compound to report on.
Challenge: Name the reported ∆Hion (heat of ionization) value associated with the compound "Oc1cc(F)cc(F)c1"
Response given: 5.73 (0.07)

###

assay: Determination of phenol pKa values (literature or spectral titration); conditions: spectral titration, 25 °C, ionic strength 100 mM
Please note: T applies when pKa is 8 or greater, and F applies otherwise.

INSERT INTO assay_data (structure_smiles_string, class_label) VALUES
  ('Oc1cccc(C(F)(F)F)c1', 'T'),
  ('Oc1ccc(C(F)(F)F)cc1', 'T');

Challenge: Can "O=[N+]([O-])c1ccc(O)cc1C(F)(F)F" be said to have pKa at or above 8?
Response given: F

###

Reported Kd values follow for various compounds
target: pKSI^D40N (ketosteroid isomerase) (Pseudomonas putida, UniProt P07445, D34C/D40N); experiment: biochemical; format: binding; details: pH 8; errors in parenthesis are average deviations; read-out: apparent affinity at pH 8 ([picture])
Kindly provide the numeric value in µM only, without the unit symbol.

INSERT INTO measurements (compound, assay_system, value_measured) VALUES
  ('Oc1ccc(F)cc1 [Phenol 4-F]', 'pKSI^D40N (ketosteroid isomerase) (Pseudomonas putida, UniProt P07445, D34C/D40N)', 133),
  ('Oc1cc(F)cc(F)c1 [3,5-F2]', 'pKSI^D40N (ketosteroid isomerase) (Pseudomonas putida, UniProt P07445, D34C/D40N)', 8.4);

Lab note: next compound to report on.
Challenge: Name the reported Kd value associated with the compound Oc1ccc(F)c(F)c1 [3,4-F2]
Response given: 31

###

molecular target: tKSI^D40N (ketosteroid isomerase) (Comamonas testosteroni, UniProt P00947, D38N); test: biochemical; assay type: binding, Commamonas testosteroni; conditions: pH 8; errors in parenthesis are average deviations; read-out: apparent affinity at pH 8 ([picture])
Sequence (P00947 whole entry D38N): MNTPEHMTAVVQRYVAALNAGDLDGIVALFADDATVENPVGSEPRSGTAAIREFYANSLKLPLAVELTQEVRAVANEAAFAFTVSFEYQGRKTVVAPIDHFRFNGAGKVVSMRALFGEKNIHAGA
Reported Kd values follow for various molecules
Kindly provide the numeric value in µM only, without the unit symbol.

Worked set:
INSERT INTO results (molecule, metric_name, measurement_unit, value_measured) VALUES
  ('Oc1cc(F)cc(F)c1 [3,5-F2]', 'Kd', 'µM', 20),
  ('Oc1ccc(F)cc1 [Phenol 4-F]', 'Kd', 'µM', 320);

Lab note: next molecule to report on.
Challenge: Quick check: Kd on tKSI^D40N (ketosteroid isomerase) (Comamonas testosteroni, UniProt P00947, D38N), item Oc1ccc(F)c(F)c1 [3,4-F2] ?
Response given: 69

###

assay: Determination of phenol pKa values (literature or spectral titration); details: solution with ionic strength 100 mM maintained with NaCl
Reported pKa values follow for various compounds
// keep it numeric: no unit symbol after the value

Worked set:
INSERT INTO measurements (structure_smiles_string, value_measured) VALUES
  ('Oc1cc(F)cc(F)c1F', 7.1),
  ('Oc1cc(F)c(F)c(F)c1', 8.2),
  ('CC(C)c1cccc(O)c1', 9.9);

Challenge: Name the reported pKa value associated with the compound "Cc1cc(O)ccc1F"
Response given: 9.8

Challenge: Next compound up: "Oc1cc(F)c(F)cc1F"
Response given: 7.7

###

experiment: Determination of phenol pKa values (literature or spectral titration)
metric.name: pKa

Challenge: Name the reported pKa value associated with the compound Oc1cc(F)c(F)c(F)c1 [3,4,5-F3, 3,4,5-trifluorophenol]
Response given: 8.2

###

target: pKSI^D40N (Pseudomonas putida, UniProt P07445, D34C/D40N); type: binding; conditions: Displacement assay; pH 7.2, 25 °C; phenolate form
metric.name: ∆G of binding

Worked set:
INSERT INTO results (molecule, metric_name, value_measured) VALUES
  ('Oc1ccc(F)cc1 [Phenol 4-F]', '∆G of binding', '-11.34 (0.02) kcal/mol'),
  ('Oc1cccc(F)c1 [Phenol 3-F, 3-fluorophenol]', '∆G of binding', '-11.10 (0.05) kcal/mol'),
  ('Oc1cc(F)cc(F)c1 [3,5-F2]', '∆G of binding', '-11.1 (0.2) kcal/mol'),
  ('Oc1cc(F)c(F)c(F)c1 [3,4,5-F3, 3,4,5-trifluorophenol]', '∆G of binding', '-11.1 (0.1) kcal/mol'),
  ('Oc1ccc(F)c(F)c1 [3,4-F2]', '∆G of binding', '-11.14 (0.01) kcal/mol');

Lab note: next molecule to report on.
Challenge: Name the reported ∆G of binding value associated with the molecule Oc1ccccc1 [Phenol, phenol]
Response given: -11.3 (0.1) kcal/mol

###

target: tKSI^D40N (ketosteroid isomerase) (Comamonas testosteroni, UniProt P00947, D38N); assay: biochemical; type: binding, Commamonas testosteroni; conditions: apparent affinity at pH 8 ([picture]), pH 8; errors in parenthesis are average deviations
metric.name: Kd (µM)
Kindly provide the numeric value in µM only, without the unit symbol.

Challenge: Name the reported Kd value associated with the compound "Oc1ccccc1"
Response given: 410

###

Reported pKa values follow for various compounds
experiment: physchem
// keep it numeric: no unit symbol after the value

Worked set:
INSERT INTO results (compound, metric_name, value_measured) VALUES
  ('CC(C)c1ccc(O)cc1 [Phenol 4-isoproyl, 4-isopropylphenol]', 'pKa', 10),
  ('Oc1c(F)c(F)c(F)c(F)c1F [pentafluorophenol]', 'pKa', 5.7);

Challenge: Name the reported pKa value associated with the compound Oc1ccc(Cl)c(Cl)c1 [3,4-Cl2, 3,4-dichlorophenol]
Response given: 8.5

Challenge: Next compound up: O=[N+]([O-])c1ccc(O)cc1F [Phenol 3-F-4-NO2, 3-fluoro-4-nitrophenol]
Response given: 6.1
